# targetOfAssay: α-actinin-2 (human, UniProt P35609 1-894)
# Sequence (P35609 whole entry): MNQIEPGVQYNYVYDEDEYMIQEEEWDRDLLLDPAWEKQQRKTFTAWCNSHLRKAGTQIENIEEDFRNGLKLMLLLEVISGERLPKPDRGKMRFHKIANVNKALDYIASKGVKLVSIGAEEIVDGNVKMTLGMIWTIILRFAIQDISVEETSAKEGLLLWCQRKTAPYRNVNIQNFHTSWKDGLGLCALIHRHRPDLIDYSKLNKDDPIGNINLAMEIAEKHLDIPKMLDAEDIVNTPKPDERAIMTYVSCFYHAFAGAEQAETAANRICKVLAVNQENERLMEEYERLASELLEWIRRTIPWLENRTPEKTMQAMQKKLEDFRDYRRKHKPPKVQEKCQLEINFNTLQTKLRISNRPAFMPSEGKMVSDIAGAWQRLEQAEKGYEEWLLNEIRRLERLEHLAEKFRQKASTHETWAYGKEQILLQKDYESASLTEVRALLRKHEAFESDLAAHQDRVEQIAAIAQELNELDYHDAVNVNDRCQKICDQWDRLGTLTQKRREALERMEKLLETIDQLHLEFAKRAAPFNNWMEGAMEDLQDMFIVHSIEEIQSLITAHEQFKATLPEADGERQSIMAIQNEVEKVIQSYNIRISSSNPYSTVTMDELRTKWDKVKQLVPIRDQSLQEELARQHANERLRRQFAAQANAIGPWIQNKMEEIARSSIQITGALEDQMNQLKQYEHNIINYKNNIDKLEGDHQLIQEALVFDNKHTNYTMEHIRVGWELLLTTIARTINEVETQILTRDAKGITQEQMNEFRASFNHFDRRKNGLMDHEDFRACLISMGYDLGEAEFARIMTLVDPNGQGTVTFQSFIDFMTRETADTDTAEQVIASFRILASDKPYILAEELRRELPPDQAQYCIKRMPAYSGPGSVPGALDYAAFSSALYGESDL
# protocolSummary: ITC
readoutName: pKd
Notebook: values listed as pKd are -log10 of the concentration (mol/L).

Input: Record request: pKd value, item PKYKSFNRTAMPYGGYEKASKRMTF (peptide, UniProt Q9NP98 216-240, looked up) [LM2 peptide]
Output: 6.50

Reference source for all entries: paper PMC8163081
